This collection of values is drawn from patent US20210355194A1.

target: SARS-COV2-S1 RBD (mouse IgG2Fc tag) (SARS-CoV-2, UniProt P0DTC2 319-537)
test.readout: IC50 (nM)
Numbers only, in nM.

Illustrative cases are given below, each with its answer.
binder	display.unit	IC50
variant 6-30 (Fc fusion) VHH: EVQLVESGGGLVQPGGSLRLSCAASGFAFGDSWMGWFRQAPGKEREFVATINWSGVTAYADSVKGRFTISADNSKNTAYLQMNSLKPEDTAVYYCARADGYFDYWGQGTLVTVSS	nM	2.94
variant 6-7 (Fc fusion) VHH: EVQLVESGGGLVQPGGSLRLSCAASGFTFSSYWMGWFRQAPGKEREFVATINWSGVTAYADSVKGRFTISADNSKNTAYLQMNSLKPEDTAVYYCARADDYFDYWGQGTLVTVSS	nM	1.53
variant 6-54 (Fc fusion) VHH: EVQLVESGGGLVQPGGSLRLSCAASGFEFENHWMGWFRQAPGKEREYVAHITAGGLSNYADSVKGRFTISADNSKNTAYLQMNSLKPEDTAVYYCGRHWGIYDSSGFSSFDYWGQGTLVTVSS	nM	8.9
variant 6-10 (Fc fusion) VHH: EVQLVESGGGLVQPGGSLRLSCAASGSIASIHAMGWFRQAPGKEREFVAAISRSGGFGSYADSVKGRFTISADNSKNTAYLQMNSLKPEDTAVYYCARDDKYYDSSGYPAYFQHWGQGTLVTVSS	nM	1.44
variant 6-1 (Fc fusion) VHH: EVQLVESGGGLVQPGGSLRLSCAASGRTFGNYNMGWFRQAPGKEREFVATINSLGGTSYADSVKGRFTISADNSKNTAYLQMNSLKPEDTAVYYCARVDYYMDVWGQGTLVTVSS	nM	15.8
variant 6-77 (Fc fusion) VHH: EVQLVESGGGLVQPGGSLRLSCAASGFTFDRSWMGWFRQAPGKEREFVAAVTEGGTTSYADSVKGRFTISADNSKNTAYLQMNSLKPEDTAVYYCARADYDFDYWGQGTLVTVSS	nM	4.04

Take each entry in turn and give its IC50.
1. variant 6-47 (Fc fusion) VHH: EVQLVESGGGLVQPGGSLRLSCAASGRTFSMHAMGWFRQAPGKERELVASITYGGNINYADSVKGRFTISADNSKNTAYLQMNSLKPEDTAVYYCAKEGYYDSTGYRTYFQQWGQGTLVTVSS
2. variant 6-18 (Fc fusion) VHH: EVQLVESGGGLVQPGGSLRLSCAASGLTFRNYAMGWFRQAPGKEREFIAGMMWSGGTTTYADSVKGRFTISADNSKNTAYLQMNSLKPEDTAVYYCAREGYYYDSSGYLNYFDYWGQGTLVTVSS
3. variant 6-65 (Fc fusion) VHH: EVQLVESGGGLVQPGGSLRLSCAASGLPFSTLHMGWFRQAPGKEREFVASLSIFGATGYADSVKGRFTISADNSKNTAYLQMNSLKPEDTAVYYCWMYYYDSSGYYGNYYYGMDVWGQGTLVTVSS

## Result
5.86
12.3
37.5

## Task Entry variant 6-41 (Fc fusion) VHH: EVQLVESGGGLVQPGGSLRLSCAASGFTFSTSWMGWFRQAPGKEREFVASINEYGGRNYADSVKGRFTISADNSKNTAYLQMNSLKPEDTAVYYCAGLHYYYDSSGYNPTEYYGMDVWGQGTLVTVSS has what IC50?
## Result 6.6
